Target: c-Met (Homo sapiens)
Sequence (P08581 25-1390): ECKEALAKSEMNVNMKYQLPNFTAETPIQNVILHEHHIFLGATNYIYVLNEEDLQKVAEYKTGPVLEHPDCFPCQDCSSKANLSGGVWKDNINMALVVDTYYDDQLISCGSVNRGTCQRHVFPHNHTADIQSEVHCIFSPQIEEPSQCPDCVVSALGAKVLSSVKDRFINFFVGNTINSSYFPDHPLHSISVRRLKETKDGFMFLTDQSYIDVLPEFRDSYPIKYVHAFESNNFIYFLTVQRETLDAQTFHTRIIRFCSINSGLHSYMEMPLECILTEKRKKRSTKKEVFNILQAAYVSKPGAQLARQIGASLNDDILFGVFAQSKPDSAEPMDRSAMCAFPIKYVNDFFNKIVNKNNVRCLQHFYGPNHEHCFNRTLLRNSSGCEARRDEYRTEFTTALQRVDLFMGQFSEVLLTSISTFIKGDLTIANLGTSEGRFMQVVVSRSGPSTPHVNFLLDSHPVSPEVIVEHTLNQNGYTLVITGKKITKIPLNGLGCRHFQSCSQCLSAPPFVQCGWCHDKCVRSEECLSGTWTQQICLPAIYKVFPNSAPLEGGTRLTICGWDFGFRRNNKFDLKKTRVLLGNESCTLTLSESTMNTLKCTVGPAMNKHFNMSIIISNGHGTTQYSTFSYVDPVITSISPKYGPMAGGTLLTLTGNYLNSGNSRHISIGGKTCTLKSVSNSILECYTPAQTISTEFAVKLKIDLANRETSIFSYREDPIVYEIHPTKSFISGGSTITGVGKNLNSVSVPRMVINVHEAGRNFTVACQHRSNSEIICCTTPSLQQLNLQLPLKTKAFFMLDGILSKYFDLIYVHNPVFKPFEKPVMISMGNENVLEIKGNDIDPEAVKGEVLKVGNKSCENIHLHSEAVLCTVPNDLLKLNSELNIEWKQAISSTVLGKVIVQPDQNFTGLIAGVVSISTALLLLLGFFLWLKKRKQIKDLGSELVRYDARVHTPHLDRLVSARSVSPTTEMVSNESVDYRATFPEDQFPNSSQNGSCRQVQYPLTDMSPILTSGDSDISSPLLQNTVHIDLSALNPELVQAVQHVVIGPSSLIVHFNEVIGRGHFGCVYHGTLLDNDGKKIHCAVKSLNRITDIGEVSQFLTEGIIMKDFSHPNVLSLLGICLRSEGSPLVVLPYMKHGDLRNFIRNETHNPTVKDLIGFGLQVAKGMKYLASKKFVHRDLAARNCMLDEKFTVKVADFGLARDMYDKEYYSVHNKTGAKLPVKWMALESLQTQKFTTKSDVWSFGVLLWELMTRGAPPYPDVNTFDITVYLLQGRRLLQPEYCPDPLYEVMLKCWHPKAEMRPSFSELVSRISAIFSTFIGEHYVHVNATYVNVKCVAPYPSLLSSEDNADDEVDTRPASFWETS
pKi: −log10 of the molar value.
Collected pKi values appear next to each entry.

Solved entries:
molecule: Nc1nn2cc(N3CCCC3)cnc2c1-c1ccccn1 [Compound V-58]
measValue: > 6.30
//
molecule: Nc1nn2cc(-c3ccncn3)cnc2c1-c1nncn1Cc1ccc(Cl)c(Cl)c1 [Compound V-136]
measValue: 5.30 to 6.30
//
molecule: CCOC(=O)c1c(N)nn2cc(-c3ccccn3)cnc12 [Compound V-25]
measValue: 5.30 to 6.30
//
molecule: CN1CCCN(C(=O)c2ccc(-c3cnc4c(-c5ccccn5)c(N)nn4c3)nc2)CC1 [Compound V-70]
measValue: > 6.30

Ask: Enter measured pKi, system c-Met (Homo sapiens), for the molecule shown: CC(=O)N1CCN(c2ccc(-c3cnc4c(-c5ccccn5)c(N)nn4c3)cn2)CC1 [Compound V-149]
Reply: > 6.30

Ask: Enter measured pKi, system c-Met (Homo sapiens), for the molecule shown: Nc1nn2cc(CCCN3CCCCC3)cnc2c1-c1ccccn1 [Compound V-312]
Reply: 5.30 to 6.30

Ask: Enter measured pKi, system c-Met (Homo sapiens), for the molecule shown: C[C@@H](CO)NCCCc1cnc2c(-c3ccccn3)c(N)nn2c1 [Compound V-326]
Reply: 5.30 to 6.30

Ask: Enter measured pKi, system c-Met (Homo sapiens), for the molecule shown: Nc1nn2cc(-c3cccnc3N3CCCCC3)cnc2c1-c1ccccn1 [Compound V-259]
Reply: 5.30 to 6.30

Ask: Enter measured pKi, system c-Met (Homo sapiens), for the molecule shown: Nc1nn2cc(-c3ccncn3)cnc2c1C(=O)N(CCO)Cc1ccccc1 [Compound V-37]
Reply: 5.30 to 6.30
